Molecular target: CCK2 receptor (Homo sapiens)
Construct: analyzed for ZFP expression as well as CCK2R induction upon addition of doxycycline to the culture medium; endogenous in cells
Test: CCK2 binding assay ([125I]-BH-CCK-8S displacement, HEKZFP membranes)
Conditions: membranes of doxycycline-induced HEKZFP cells; 20 pM [125I]-BH-CCK-8S; 60 min at 21±3° C.; read-out: CCK2 pKi (converted)
Listing: Ki of selected molecules
Enter your answer as a number in nM; do not include the unit.

// query Can you look up Ki on CCK2 receptor (Homo sapiens) for C[C@H](NC(=O)c1ccc(Cl)cc1NS(=O)(=O)c1cccc2nsnc12)C(O)(c1ccccc1)c1ccccc1 [Example 74] ?
// result 7940

// query Record lookup: for CCK2 receptor (Homo sapiens), what Ki belongs to CC(Cc1ccc(Cl)cc1)NC(=O)c1ccc(C(F)(F)F)cc1NS(=O)(=O)c1cccc2nsnc12 (centres unmarked) [Example 22] ?
// result 631

// query Quick check: Ki on CCK2 receptor (Homo sapiens), item O=C(N[C@@H](Cc1ccc(Cl)c(Br)c1)C(=O)O)c1cc(Cl)c(Cl)cc1NS(=O)(=O)c1cccc2nsnc12 [Example 147] ?
// result 39.8

// query Give recorded Ki with CCK2 receptor (Homo sapiens) for the following molecule: O=C(N[C@@H](Cc1ccc(Cl)cc1)C(=O)O)c1cc(Cl)ccc1NS(=O)(=O)c1cccc2nsnc12 [Example 83]
// result 251

// query API: value(readout= Ki, system= CCK2 receptor (Homo sapiens), query= N#Cc1cccc(C[C@H](NC(=O)c2ccc(Cl)cc2NS(=O)(=O)c2cccc3nccnc23)C(=O)O)c1 [Example 63] )
// result 31.6

---

Molecular target: CCK2 receptor (Homo sapiens, UniProt P32239)
Construct: analyzed for ZFP expression as well as CCK2R induction upon addition of doxycycline to the culture medium; endogenous in cells
Sequence (P32239 1-447): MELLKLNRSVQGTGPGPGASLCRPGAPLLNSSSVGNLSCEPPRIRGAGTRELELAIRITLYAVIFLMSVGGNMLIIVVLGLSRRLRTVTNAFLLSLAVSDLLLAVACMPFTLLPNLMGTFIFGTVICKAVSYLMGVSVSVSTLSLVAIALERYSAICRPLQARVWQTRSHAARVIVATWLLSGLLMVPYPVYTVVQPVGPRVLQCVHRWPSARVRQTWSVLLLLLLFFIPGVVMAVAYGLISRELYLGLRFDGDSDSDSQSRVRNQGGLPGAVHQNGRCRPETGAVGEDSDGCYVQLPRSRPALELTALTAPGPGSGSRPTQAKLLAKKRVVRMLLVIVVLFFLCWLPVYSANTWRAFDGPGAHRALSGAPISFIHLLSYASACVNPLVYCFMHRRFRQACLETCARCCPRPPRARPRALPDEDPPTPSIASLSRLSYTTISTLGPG
Test: CCK2 binding assay ([125I]-BH-CCK-8S displacement, HEKZFP membranes)
Conditions: membranes of doxycycline-induced HEKZFP cells; 20 pM [125I]-BH-CCK-8S; 60 min at 21±3° C.
Here the recorded CCK2 pKi is given for each entry.

MOLECULE: CC(CNC(=O)c1ccc(Br)cc1NS(=O)(=O)c1cccc2nsnc12)c1ccccc1 (stereo not shown)
RESULT: 6.2

MOLECULE: O=C(N[C@H](C(=O)O)C(c1ccc(Cl)cc1)c1ccc(Cl)cc1)c1ccc(Cl)cc1NS(=O)(=O)c1cccc2nsnc12
RESULT: 5.9

MOLECULE: O=C(N[C@@H](Cc1ccc(F)c(Br)c1)C(=O)O)c1ccc(Cl)cc1NS(=O)(=O)c1cccc2nccnc12
RESULT: 8.0

Shift focus to the following entry.
// query Fill in the blank: the reported CCK2 pKi of O=C(N[C@@H](Cc1ccc(Cl)c(Br)c1)C(=O)O)c1ccc(Cl)cc1NS(=O)(=O)c1cccc2nsnc12 is ____.
// result 7.4

---

Molecular target: CCK2 receptor (Homo sapiens)
Construct: analyzed for ZFP expression as well as CCK2R induction upon addition of doxycycline to the culture medium; endogenous in cells
Experiment: CCK2 binding assay ([125I]-BH-CCK-8S displacement, HEKZFP membranes)
Settings: membranes of doxycycline-induced HEKZFP cells; 20 pM [125I]-BH-CCK-8S; 60 min at 21±3° C.; read-out: CCK2 pKi (converted)
QUANTITY MEASURED: Ki (nM)
Hi! Could you send only the number? It should be in nM, unit omitted.

Example entries and their recorded answers appear below.
COMPOUND: O=C(N[C@@H](Cc1ccc(Cl)c(I)c1)C(=O)O)c1ccc(I)cc1NS(=O)(=O)c1cccc2nccnc12
QUANTITATIVE RESULT: 50.1
--
COMPOUND: COC(=O)[C@@H](Cc1ccc(Cl)cc1)NC(=O)c1ccc(Cl)cc1NS(=O)(=O)c1ccc(F)cc1F
QUANTITATIVE RESULT: 7940
--
COMPOUND: O=C(N[C@@H](C(=O)O)[C@@H](O)c1ccc(Cl)c(Cl)c1)c1ccc(Cl)cc1NS(=O)(=O)c1cccc2nsnc12 (relative stereo)
QUANTITATIVE RESULT: 501
--
COMPOUND: CC(C)(c1ccc(Cl)cc1)[C@H](NC(=O)c1ccc(Cl)cc1NS(=O)(=O)c1cccc2nsnc12)C(=O)O
QUANTITATIVE RESULT: 794
--
COMPOUND: CC(CNC(=O)c1ccc(Br)cc1NS(=O)(=O)c1cccc2nsnc12)c1ccc(Cl)cc1 (stereo not shown)
QUANTITATIVE RESULT: 1000

// query Please look up its Ki: CC(CNC(=O)c1ccc(Cl)cc1NS(=O)(=O)c1c(F)cccc1F)c1ccc(C(F)(F)F)cc1 (stereo not shown)
// result 1580

// query Can you share its Ki? I mean this compound: O=C(N[C@@H](Cc1ccccc1)C(=O)O)c1ccc(C(F)(F)F)cc1NS(=O)(=O)c1cccc2nsnc12
// result 39.8

---

Biological target: CCK-1 receptor (Homo sapiens)
Construct: expressed in transfected cells; host or cells: CHO-K1
Sequence (P32238 whole entry): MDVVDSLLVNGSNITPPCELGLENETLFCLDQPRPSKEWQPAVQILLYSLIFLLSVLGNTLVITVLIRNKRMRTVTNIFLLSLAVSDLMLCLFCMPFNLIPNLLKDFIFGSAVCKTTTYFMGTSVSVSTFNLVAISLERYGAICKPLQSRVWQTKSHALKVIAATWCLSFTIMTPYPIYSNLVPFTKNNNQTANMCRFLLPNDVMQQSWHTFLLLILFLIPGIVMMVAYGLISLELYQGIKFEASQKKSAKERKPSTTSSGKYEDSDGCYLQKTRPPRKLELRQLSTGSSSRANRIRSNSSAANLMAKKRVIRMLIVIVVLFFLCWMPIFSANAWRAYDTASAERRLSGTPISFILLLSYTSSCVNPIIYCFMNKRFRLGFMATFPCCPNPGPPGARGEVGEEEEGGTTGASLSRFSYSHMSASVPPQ
Assay: CCK1 binding assay ([125I]-BH-CCK-8S displacement, CHO-K1 membranes)
Details: membranes of CHO-K1 cells stably transfected with the CCK-1 receptor; 20 pM [125I]-BH-CCK-8S; 0.3 μM PD-134,308 present; 60 min at 21±3° C.
Protocol: 1. CCK1 Assay Development and Data Generation CHO-K1 cells that had undergone stable transfection with the CCK-1 receptor were grown in DMEM supplemented with L-glutamine (2 mM), penicillin (50 units/mL) and streptomycin (50 μg/mL). […] All assays were conducted in 96-well plates (GF/B millipore filter plates) using buffer A, with 0.3 μM PD-134,308, for the dilutions. […] Bound radioactivity was determined using a gamma counter (count time=1 min). […] The pKi values were determined using the equation of Y.-C. […]
Each entry below lists one item and its recorded CCK1 pKi value.
# output: bare number, no unit

COMPOUND STRUCTURE: O=C(N[C@@H](Cc1ccc(Cl)c(Br)c1)C(=O)O)c1ccc(Cl)cc1NS(=O)(=O)c1cccc2nsnc12
QUANTITY MEASURED: CCK1 pKi
QUANTITATIVE RESULT: 6.7

// query // lookup CCK1 pKi for O=C(N[C@@H](Cc1ccc(F)c(Br)c1)C(=O)O)c1cc(Cl)c(Cl)cc1NS(=O)(=O)c1cccc2nccnc12
// result 6.8

// query What value of measured CCK1 pKi is listed for COC(=O)[C@H](Cc1ccc(F)c(Br)c1)NC(=O)c1cc(Cl)c(Cl)cc1NS(=O)(=O)c1cccc2nccnc12 ?
// result 6.7

// query Entry O=C(N[C@H](Cc1ccc(Cl)c(Cl)c1)C(=O)O)c1ccc(Cl)cc1NS(=O)(=O)c1cccc2nsnc12 : reported CCK1 pKi = ?
// result 7.1

---

Here, each record is paired with measured CCK2 pKi data.
Target: CCK2 receptor (Homo sapiens)
Construct: analyzed for ZFP expression as well as CCK2R induction upon addition of doxycycline to the culture medium; endogenous in cells
Sequence (P32239 1-447): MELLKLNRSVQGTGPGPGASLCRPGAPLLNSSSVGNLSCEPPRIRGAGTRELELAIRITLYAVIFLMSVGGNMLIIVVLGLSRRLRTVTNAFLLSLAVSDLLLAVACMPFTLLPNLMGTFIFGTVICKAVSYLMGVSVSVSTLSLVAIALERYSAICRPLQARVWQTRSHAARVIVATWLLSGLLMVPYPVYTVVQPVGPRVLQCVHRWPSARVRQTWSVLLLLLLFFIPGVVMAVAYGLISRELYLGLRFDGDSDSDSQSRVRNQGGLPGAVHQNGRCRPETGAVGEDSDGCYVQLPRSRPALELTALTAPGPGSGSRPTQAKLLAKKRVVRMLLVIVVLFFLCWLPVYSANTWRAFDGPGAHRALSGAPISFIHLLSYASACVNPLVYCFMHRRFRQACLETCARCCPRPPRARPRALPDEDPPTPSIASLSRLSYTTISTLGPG
Assay: CCK2 binding assay ([125I]-BH-CCK-8S displacement, HEKZFP membranes)
Settings: membranes of doxycycline-induced HEKZFP cells; 20 pM [125I]-BH-CCK-8S; 60 min at 21±3° C.
Enter the number alone.

// query Sample C[C@H](CNC(=O)c1ccc(Br)cc1NS(=O)(=O)c1cccc2nsnc12)c1ccccc1 — what was its CCK2 pKi?
// result 6.3

// query Looking for the measured CCK2 pKi of O=C(N[C@@H](Cc1ccc(F)c(Br)c1)C(=O)O)c1cc(Cl)c(Cl)cc1NS(=O)(=O)c1cccc2nccnc12 , can you help?
// result 8.2

// query // returns reported CCK2 pKi for input C[C@@H](CNC(=O)c1ccc(Br)cc1NS(=O)(=O)c1cccc2nsnc12)c1ccccc1
// result 5.8

// query Which CCK2 pKi reading was recorded for the compound C[C@@H](NC(=O)c1ccc(Cl)cc1NS(=O)(=O)c1cccc2nsnc12)[C@@H](O)c1cccc(Br)c1 ?
// result 5.9

// query Look up CCK2 pKi for this compound: O=C(N[C@@H](Cc1ccc(Cl)c(Br)c1)C(=O)O)c1ccc(Br)cc1NS(=O)(=O)c1cccc2nccnc12
// result 8.0

// query Using the record for O=C(N[C@@H](Cc1ccc(F)c(Br)c1)C(=O)O)c1ccc(I)cc1NS(=O)(=O)c1cccc2nsnc12 , report its CCK2 pKi.
// result 8.3

// query Query (compound): O=C(N[C@@H](Cc1ccc(Cl)c(Br)c1)C(=O)O)c1ccc(Br)cc1NS(=O)(=O)c1cccc2nsnc12 ; field requested: CCK2 pKi
// result 7.9

// data source = patent US7855292B2
